Entries and their normalized growth values follow.
# experimentNotes: chemical genetic growth profiling, strain panel (AID 1159580);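 note: tested at 20 µM; growth read once vehicle control cultures reached saturation at 30 °C; 1 = growth at the plate median or of vehicle wells; lower values mean less growth of the strain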
# experimentalContext: S. cerevisiae deletion strains, growth OD, locus YJL129C, strain trk1, active compounds read low
Among all 5,500 compounds or so, about 2,000 (36%) were called active. Inconclusive results (about 18%) are left out. The list shows a part of the results.
propertyName: normalized growth

INSERT INTO assay_data (compound, propertyname, resultvalue) VALUES
  ('CN(C)CCCN1c2ccccc2Sc2ccc(C(F)(F)F)cc21', 'normalized growth', '1.03 (inactive)'),
  ('CC(=O)Nc1ccc(S(=O)(=O)Nc2onc(C)c2C)cc1', 'normalized growth', '0.983 (inactive)'),
  ('CC(C)CCCC(C)C1CCC2C3C[C@@H](O)[C@@]4(O)C[C@@H](O)CC[C@]4(C)C3CC[C@]12C (stereo not given in full)', 'normalized growth', '1.01 (inactive)'),
  ('CN(C)CCCN1c2ccccc2CCc2ccccc21', 'normalized growth', '0.995 (inactive)'),
  ('CCCc1cc(=O)[nH]c(=S)[nH]1', 'normalized growth', '1.01 (inactive)'),
  ('CC(=O)OCC(=O)[C@@]1(O)[C@H](C)CC2C3CCC4=CC(=O)C=C[C@]4(C)[C@@]3(F)[C@@H](O)C[C@@]21C (stereo not given in full)', 'normalized growth', '0.956 (inactive)'),
  ('C=C1c2c(Cl)ccc(O)c2C(O)=C2C(=O)[C@]3(O)C(O)=C(C(N)=O)C(=O)[C@@H](N(C)C)[C@@H]3[C@@H](O)[C@H]12', 'normalized growth', '1.01 (inactive)'),
  ('CS(=O)(=O)c1ccc([C@@H](O)[C@@H](CO)NC(=O)C(Cl)Cl)cc1', 'normalized growth', '1.05 (inactive)'),
  ('CCC(C)[C@H]1O[C@]2(C=C[C@@H]1C)C[C@@H]1C[C@@H](C/C=C(\C)[C@@H](OC3C[C@H](OC)C(O[C@H]4C[C@H](OC)[C@@H](O)[C@H](C)O4)[C@H](C)O3)[C@@H](C)/C=C/C=C3\CO[C@@H]4[C@H](O)C(C)=C[C@@H](C(=O)O1)[C@]34O)O2 (stereo not given in full)', 'normalized growth', '0.955 (inactive)'),
  ('CC(C)=CCCC(C)[C@@H]1CC[C@]2(C)C3=C(CC[C@@]12C)C1(C)CC[C@H](O)C(C)(C)C1CC3 (stereo not given in full)', 'normalized growth', '1.08 (inactive)'),
  ('O=C(O)C1=CCCNC1', 'normalized growth', '0.99 (inactive)'),
  ('CC(C)CCCC(C)[C@H]1CCC2C3CC=C4CC(=O)CC[C@]4(C)C3CC[C@@]21C (stereo not given in full)', 'normalized growth', '0.935 (inactive)'),
  ('C=C1c2cccc(O)c2C(O)=C2C(=O)[C@]3(O)C(O)=C(C(N)=O)C(=O)[C@@H](N(C)C)[C@@H]3[C@@H](O)[C@H]12', 'normalized growth', '1.04 (inactive)'),
  ('CO[C@H]1CC(O[C@@H]2/C(C)=C/C[C@@H]3C[C@@H](C[C@]4(CC[C@H](C)[C@@H](C5CCCCC5)O4)O3)OC(=O)[C@@H]3C=C(C)/C(=N\O)[C@H]4OC/C(=C\C=C\[C@@H]2C)[C@]43O)O[C@@H](C)C1O (stereo not given in full)', 'normalized growth', '0.901 (inactive)'),
  ('CC1=CCCC2C1(C)CCC(C)C2(C)CC/C(C)=C/C[n+]1cn(C)c2c(N)ncnc21 (stereo not given)', 'normalized growth', '1 (inactive)'),
  ('CC(C)=CCc1c2c(c3occ(-c4ccc(O)cc4)c(=O)c3c1O)C=CC(C)(C)O2', 'normalized growth', '1.02 (inactive)'),
  ('CC(C)(C)NC[C@H](O)c1ccc(O)c(CO)c1', 'normalized growth', '1.03 (inactive)'),
  ('CN(C)[C@@H]1C(=O)C(C(=O)NCN2CCCC2)=C(O)[C@@]2(O)C(=O)C3=C(O)c4c(O)cccc4[C@@](C)(O)[C@H]3C[C@@H]12', 'normalized growth', '1.03 (inactive)'),
  ('CC1(C)CC2C1CC[C@]1(CBr)CCC3C(CC(=O)O)C(=O)O[C@@]32C1 (stereo not given in full)', 'normalized growth', '0.997 (inactive)'),
  ('C=C1C[C@]23C[C@@]1(O)CC[C@H]2[C@@]12C=C[C@H](O)[C@@](C)(C(=O)O1)[C@H]2[C@@H]3C(=O)O', 'normalized growth', '1.04 (inactive)'),
  ('CC(=O)O[C@H]1CCC2(C)C3=C(CCC2C1(C)C)[C@@]1(C)CC[C@@H](C(C)CCC=C(C)C)[C@]1(C)CC3 (stereo not given in full)', 'normalized growth', '1.07 (inactive)'),
  ('CC(C)CCCC(C)C1CCC2C3=CC[C@H]4C[C@@H](O)CC[C@]4(C)C3CC[C@@]21C (stereo not given in full)', 'normalized growth', '0.905 (inactive)'),
  ('CC(C)CCCC(C)C1CCC2C3CC(=O)[C@H]4C[C@@H](O)CC[C@]4(C)C3CC[C@]12C (stereo not given in full)', 'normalized growth', '1.04 (inactive)'),
  ('O=P1(N(CCCl)CCCl)NCCCO1 (stereo not given)', 'normalized growth', '1.02 (inactive)'),
  ('CN(C)[C@@H]1C(=O)C(C(N)=O)=C(O)[C@@]2(O)C(=O)C3=C(O)c4c(O)ccc(Cl)c4[C@@](C)(O)[C@H]3C[C@@H]12', 'normalized growth', '0.991 (inactive)'),
  ('COc1ccccc1OCC(O)CO (stereo not given)', 'normalized growth', '1.04 (inactive)'),
  ('CC(C)=CCc1c2c(c3occ(-c4ccc(O)c(O)c4)c(=O)c3c1O)C=CC(C)(C)O2', 'normalized growth', '1 (inactive)'),
  ('CC(=O)O[C@H]1CCC2(C)C3=C(CCC2C1(C)C)[C@]1(C)CCC(C(C)CCC=C(C)C)[C@@]1(C)CC3 (stereo not given in full)', 'normalized growth', '0.977 (inactive)'),
  ('Cc1nc(N)cc(C[n+]2csc(CCO)c2C)n1', 'normalized growth', '0.965 (inactive)'),
  ('CC(=O)c1cc(CC=C(C)C)c(O)c(CC=C(C)C)c1', 'normalized growth', '0.974 (inactive)');
